Collected MIC values appear next to each entry.
# Tested on: Moraxella catarrhalis
# experimental_protocol: Antibacterial activity against Moraxella catarrhalis ATCC 23246 by broth microdilution method
# Type: functional

Look up MIC for this molecule: "CC[C@H]1OC(=O)[C@H](C)[C@@H](O[C@H]2C[C@@](C)(OC)[C@@H](O)[C@H](C)O2)[C@H](C)[C@@H](O[C@@H]2O[C@H](C)C[C@H](N(C)C)[C@H]2O)[C@](C)(O)C[C@@H](C)CN(C)[C@H](C)[C@@H](O)[C@]1(C)O"
≤ 0.125 µg/mL

Next:
Look up MIC for this molecule: "CC[C@H]1OC(=O)[C@H](C)[C@@H](O[C@@H]2O[C@@H](C)C[C@](C)(OC)[C@H]2OC(=O)CCOCCOCCCc2ccc3c(c2)c(=O)c(C(=O)O)cn3CC)[C@H](C)[C@@H](O[C@@H]2O[C@H](C)C[C@H](N(C)C)[C@H]2O)[C@](C)(OC)C[C@@H](C)C(=O)[C@H](C)[C@H]2N(C)C(=O)O[C@]12C"
≤ 0.125 µg/mL

====

Collected MIC values appear next to each entry.
# Tested on: Staphylococcus aureus
# experimental_protocol: Antibacterial activity against erythromycin-sensitive Staphylococcus aureus ATCC 13709 by broth microdilution method
# Type: functional

Look up MIC for this compound: "CC[C@H]1OC(=O)[C@H](C)[C@@H](O[C@@H]2O[C@@H](C)C[C@](C)(OC)[C@H]2OC(=O)CCOCCOCCCc2ccc3c(c2)c(=O)c(C(=O)O)cn3CC)[C@H](C)[C@@H](O[C@@H]2O[C@H](C)C[C@H](N(C)C)[C@H]2O)[C@](C)(OC)C[C@@H](C)C(=O)[C@H](C)[C@H]2N(C)C(=O)O[C@]12C"
≤ 0.125 µg/mL

Further cases:
Look up MIC for this compound: "CCCn1cc(C(=O)O)c(=O)c2cc(CCCOCCOCCC(=O)O[C@H]3[C@H](C)O[C@@H](O[C@H]4[C@H](C)[C@@H](O[C@@H]5O[C@H](C)C[C@H](N(C)C)[C@H]5O)[C@](C)(O)C[C@@H](C)CN(C)[C@H](C)[C@@H](O)[C@](C)(O)[C@@H](CC)OC(=O)[C@@H]4C)C[C@@]3(C)OC)ccc21"
≤ 0.125 µg/mL

Look up MIC for this compound: "CC[C@H]1OC(=O)[C@H](C)[C@@H](O[C@H]2C[C@@](C)(OC)[C@@H](OC(=O)CCOCCOCCCc3ccc4c(c3)c(=O)c(C(=O)O)cn4C3CC3)[C@H](C)O2)[C@H](C)[C@@H](O[C@@H]2O[C@H](C)C[C@H](N(C)C)[C@H]2O)[C@](C)(O)C[C@@H](C)CN(C)[C@H](C)[C@@H](O)[C@]1(C)O"
≤ 0.125 µg/mL

====

# experimental_protocol: Oral bioavailability in Sprague-Dawley rat blood at 30 mg/kg
# Type: ADME, organism-based
# condition_context: whole blood
experimental_readout: bioavailability (%)
The reply should be a number in %, with the unit left off.

Look up bioavailability for this compound: "CC[C@H]1OC(=O)[C@H](C)[C@@H](O[C@H]2C[C@@](C)(OC)[C@@H](OC(=O)CCOCCOCCCc3ccc4c(c3)c(=O)c(C(=O)O)cn4C3CC3)[C@H](C)O2)[C@H](C)[C@@H](O[C@@H]2O[C@H](C)C[C@H](N(C)C)[C@H]2O)[C@](C)(O)C[C@@H](C)CN(C)[C@H](C)[C@@H](O)[C@]1(C)O"
16

Next:
Look up bioavailability for this compound: "CC[C@H]1OC(=O)[C@H](C)[C@@H](O[C@H]2C[C@@](C)(OC)[C@@H](OC(=O)CCOCCOCCCc3ccc4c(c3)c(=O)c(C(=O)O)cn4CC)[C@H](C)O2)[C@H](C)[C@@H](O[C@@H]2O[C@H](C)C[C@H](N(C)C)[C@H]2O)[C@](C)(O)C[C@@H](C)CN(C)[C@H](C)[C@@H](O)[C@]1(C)O"
22

====

Collected MIC values appear next to each entry.
# Tested on: Moraxella catarrhalis
# experimental_protocol: Antibacterial activity against Moraxella catarrhalis ATCC 23246 by broth microdilution method
# Type: functional
The reply should be a number in µg/mL, with the unit left off.

Look up MIC for this molecule: "CC[C@H]1OC(=O)[C@H](C)[C@@H](O[C@@H]2O[C@@H](C)C[C@](C)(OC)[C@H]2OC(=O)CCOCCOCCCc2ccc3c(c2)c(=O)c(C(=O)O)cn3CC)[C@H](C)[C@@H](O[C@@H]2O[C@H](C)C[C@H](N(C)C)[C@H]2O)[C@](C)(O)C[C@@H](C)/C(=N\OCOCCOC)[C@H](C)[C@@H](O)[C@]1(C)O"
1

Next:
Look up MIC for this molecule: "CC[C@H]1OC(=O)[C@H](C)[C@@H](O[C@H]2C[C@@](C)(OC)[C@@H](OC(=O)CCOCCOCCCc3ccc4c(c3)c(=O)c(C(=O)O)cn4C3CC3)[C@H](C)O2)[C@H](C)[C@@H](O[C@@H]2O[C@H](C)C[C@H](N(C)C)[C@H]2O)[C@](C)(O)C[C@@H](C)CN(C)[C@H](C)[C@@H](O)[C@]1(C)O"
0.5

====

# Tested on: Staphylococcus aureus
# experimental_protocol: Antibacterial activity against efflux-mediated macrolide resistance Staphylococcus aureus PK1 by broth microdilution method
# Type: functional
Collected MIC values appear next to each entry.

Look up MIC for this molecule: CC[C@H]1OC(=O)[C@H](C)[C@@H](O[C@H]2C[C@@](C)(OC)[C@@H](O)[C@H](C)O2)[C@H](C)[C@@H](O[C@@H]2O[C@H](C)C[C@H](N(C)C)[C@H]2O)[C@](C)(O)C[C@@H](C)CN(C)[C@H](C)[C@@H](O)[C@]1(C)O [AZITHROMYCIN]
> 64 µg/mL

Look up MIC for this molecule: CC[C@H]1OC(=O)[C@H](C)C(=O)[C@H](C)[C@@H](O[C@@H]2O[C@H](C)C[C@H](N(C)C)[C@H]2O)[C@](C)(OC)C[C@@H](C)C(=O)[C@H](C)[C@H]2N(CCCCn3cnc(-c4cccnc4)c3)C(=O)O[C@]12C [TELITHROMYCIN]
≤ 0.125 µg/mL

Next:
Look up MIC for this molecule: "CCCn1cc(C(=O)O)c(=O)c2cc(CCCOCCOCCC(=O)O[C@H]3[C@H](C)O[C@@H](O[C@H]4[C@H](C)[C@@H](O[C@@H]5O[C@H](C)C[C@H](N(C)C)[C@H]5O)[C@](C)(O)C[C@@H](C)CN(C)[C@H](C)[C@@H](O)[C@](C)(O)[C@@H](CC)OC(=O)[C@@H]4C)C[C@@]3(C)OC)ccc21"
≤ 0.125 µg/mL

====

# experimental_protocol: Volume of distribution at steady state in Sprague-Dawley rat blood at 30 mg/kg, po and 5 mg/kg, iv
# Format: ADME, organism-based
# condition_context: whole blood, read-out: Vdss
experimental_readout: Vd (L/kg)
The reply should be a number in L/kg, with the unit left off.

Look up Vd for this compound: "CC[C@H]1OC(=O)[C@H](C)[C@@H](O[C@H]2C[C@@](C)(OC)[C@@H](OC(=O)CCOCCOCCCc3ccc4c(c3)c(=O)c(C(=O)O)cn4C3CC3)[C@H](C)O2)[C@H](C)[C@@H](O[C@@H]2O[C@H](C)C[C@H](N(C)C)[C@H]2O)[C@](C)(O)C[C@@H](C)CN(C)[C@H](C)[C@@H](O)[C@]1(C)O"
10.5

Look up Vd for this compound: "CC[C@H]1OC(=O)[C@H](C)[C@@H](O[C@H]2C[C@@](C)(OC)[C@@H](OC(=O)CCOCCOCCCc3ccc4c(c3)c(=O)c(C(=O)O)cn4CC)[C@H](C)O2)[C@H](C)[C@@H](O[C@@H]2O[C@H](C)C[C@H](N(C)C)[C@H]2O)[C@](C)(O)C[C@@H](C)CN(C)[C@H](C)[C@@H](O)[C@]1(C)O"
10.4

====

Collected MIC values appear next to each entry.
# System: Staphylococcus aureus
# experimental_protocol: Antibacterial activity against erythromycin-sensitive Staphylococcus aureus ATCC 13709 by broth microdilution method
# Type: functional

As a guide, the following entries are already answered.
Look up MIC for this compound: "CC[C@H]1OC(=O)[C@H](C)[C@@H](O[C@@H]2O[C@@H](C)C[C@](C)(OC)[C@H]2OC(=O)CCOCCOCCCc2ccc3c(c2)c(=O)c(C(=O)O)cn3CC)[C@H](C)[C@@H](O[C@@H]2O[C@H](C)C[C@H](N(C)C)[C@H]2O)[C@](C)(OC)C[C@@H](C)C(=O)[C@H](C)[C@H]2NC(=O)O[C@@]21C"
≤ 0.125 µg/mL

Look up MIC for this compound: "CC[C@H]1OC(=O)[C@H](C)[C@@H](O[C@H]2C[C@@](C)(OC)[C@@H](OC(=O)CCOCCOCCCc3ccc4c(c3)c(=O)c(C(=O)O)cn4CC)[C@H](C)O2)[C@H](C)[C@@H](O[C@@H]2O[C@H](C)C[C@H](N(C)C)[C@H]2O)[C@](C)(O)C[C@@H](C)CN(C)[C@H](C)[C@@H](O)[C@]1(C)O"
≤ 0.125 µg/mL

Next:
Look up MIC for this compound: CC[C@H]1OC(=O)[C@H](C)C(=O)[C@H](C)[C@@H](O[C@@H]2O[C@H](C)C[C@H](N(C)C)[C@H]2O)[C@](C)(OC)C[C@@H](C)C(=O)[C@H](C)[C@H]2N(CCCCn3cnc(-c4cccnc4)c3)C(=O)O[C@]12C [TELITHROMYCIN]
≤ 0.125 µg/mL

Where do these numbers come from? They come from ChEMBL document CHEMBL1221232.
